Below: a set of entries, each annotated with reported GI50.
Tested on: Malme-3M
test.name: NCI tumour cell line growth inhibition, 48 h
The source made the active and inactive calls. No stated cut-off is given here; in the data, active = GI50 up to about 1.1 µM and inactive = higher.

- molecule: "CN(C)c1ccc2c(NCCCCCCNc3ccnc4cc(N(C)C)ccc34)ccnc2c1"
  GI50: "2.85 µM (inactive)"
- molecule: "C[N+](C)(C)CC(=O)N/N=C(/C=C/c1ccccc1)CC1OC(=O)c2ccccc21 (stereo unspecified)"
  GI50: "> 100 µM (inactive)"
- molecule: "CCc1n[nH]c(=O)n1CC"
  GI50: "> 100 µM (inactive)"
- molecule: "C(=N\\Nc1ccccc1)/c1nc2ccccc2nc1/C=N/Nc1ccccc1"
  GI50: "24.9 µM (inactive)"
- molecule: "Cc1cccc(N2C(=O)C(=O)C(c3nc4ccccc4s3)/C(=N/NC(=S)NN)C2=O)c1C (stereo unspecified)"
  GI50: "> 100 µM (inactive)"
- molecule: "O=C1O/C(=C\\c2ccc(O)cc2)C(c2ccc(O)c(Cl)c2)=C1Cl"
  GI50: "24.5 µM (inactive)"
- molecule: "NC(=O)C(=O)n1ncc(Cl)c(Cl)c1=O"
  GI50: "17.5 µM (inactive)"
- molecule: "COc1ccc(-c2cc(-c3ccccc3)c3c(n2)-c2ccccc2NC(=O)C3)cc1"
  GI50: "17.4 µM (inactive)"
- molecule: "c1ccc2c(CC3NCCN3)cccc2c1"
  GI50: "> 100 µM (inactive)"
- molecule: "CCOc1ccc2c(c1)[n+]([O-])c(C(N)=O)c(N)[n+]2[O-]"
  GI50: "> 100 µM (inactive)"
- molecule: "O=[N+]([O-])c1nccn1CCCNCCCn1ccnc1[N+](=O)[O-]"
  GI50: "36.6 µM (inactive)"

* * *

Test system: SF-539
test.name: NCI tumour cell line growth inhibition, 48 h
Calls of active or inactive are those of the source. Cut-off read from the data, not from the text of the source: active = GI50 up to about 1.1 µM and inactive = higher.
GI50 reference

- molecule: "Cc1nc(C)c(N2CCN([N+](=O)[O-])CC2)c(O)n1"
  system.under.test: "SF-539"
  GI50: "> 100 µM (inactive)"
- molecule: "COc1cc(OC)c(C2CC=Cc3c(OC)cc(OC)c(OC)c32)cc1OC (stereo unspecified)"
  system.under.test: "SF-539"
  GI50: "> 100 µM (inactive)"
- molecule: "CN(C)/N=N/c1ccc(S(N)(=O)=O)cc1"
  system.under.test: "SF-539"
  GI50: "> 100 µM (inactive)"
- molecule: "CC(C)(Oc1ccc(-c2cccc3ccccc23)cc1)C(=O)O"
  system.under.test: "SF-539"
  GI50: "> 100 µM (inactive)"
- molecule: "O=C1CCC2C(O)c3cc4c(cc3C(c3ccc5c(c3)OCO5)N12)OCO4 (stereo unspecified)"
  system.under.test: "SF-539"
  GI50: "80 µM (inactive)"
- molecule: "N#Cc1c(Cl)cccc1Oc1ccc(S(=O)(=O)/N=C(\\NN)Nc2ccc(Cl)cc2)cc1"
  system.under.test: "SF-539"
  GI50: "17.7 µM (inactive)"

* * *

System: HOP-62
test.name: NCI tumour cell line growth inhibition, 48 h
Calls of active or inactive are those of the source. Cut-off read from the data, not from the text of the source: active = GI50 up to about 1.1 µM and inactive = higher. Peptide text beside a SMILES is read from it. * marks the point of attachment. Boc = CC(C)(C)OC(=O)*
Classes used: active, inactive

- compound: "COC(=O)C1=C(OC)[C@H]2C#C/C=C\\C#C[C@@H]3Nc4c(cc(O)c5c4C(=O)c4ccccc4C5=O)[C@]24O[C@@]34[C@H]1C"
  label.value: "active"
- compound: "CC1=CC[C@@]2(CO)[C@@H]([C@@H]1C)[C@H]1CC[C@@H]3[C@@]4(C)CC[C@H](O)C(C)(C)[C@@H]4CC[C@@]3(C)[C@]1(C)C[C@@H]2O"
  label.value: "inactive"
- compound: "COC(=O)C(Cc1ccccc1)NC(=O)C(CS)NC(=O)OC(C)(C)C (stereo not drawn) (Boc-Cys-Phe-OMe; configuration not given here)"
  label.value: "inactive"

* * *

Each entry below carries its reported GI50.
System: CCRF-CEM
test.name: NCI tumour cell line growth inhibition, 48 h
Activity calls are given as the source filed them. Cut-off read from the data, not from the text of the source: active = GI50 up to about 1.1 µM and inactive = higher.

- compound: "COC(OC)[C@@H]1OC[C@H](n2ccc(=O)[nH]c2=O)[C@H]1O"
  GI50: "> 100 µM (inactive)"
- compound: "C[N+](C)(C)c1ncnc2c1ncn2C1CCCO1 (stereo unspecified)"
  GI50: "> 100 µM (inactive)"
- compound: "Cc1cccc2c1CC(C1OC(=O)c3c(C)cccc31)C2=O (stereo unspecified)"
  GI50: "> 100 µM (inactive)"
- compound: "COC(=O)c1ccc(OCCn2nnc(C(=O)NN)c2C(=O)NN)cc1"
  GI50: "> 100 µM (inactive)"
- compound: "CC(C)C[C@H](NC(=O)CCc1ccccc1)B(O)O"
  GI50: "2.33 µM (inactive)"
- compound: "O=C1C=CC(=O)c2cc(Sc3ccccc3)c(=O)c(Sc3ccccc3)cc21"
  GI50: "17.3 µM (inactive)"

* * *

System: SK-MEL-28
test.name: NCI tumour cell line growth inhibition, 48 h
The source made the active and inactive calls. Cut-off read from the data, not from the text of the source: active = GI50 up to about 1.1 µM and inactive = higher.
Entries annotated with measured GI50
measured.attribute: GI50

- compound: "O=C1CSC(/C(=C/c2ccccc2)c2nc3ccccc3[nH]2)=N1"
  result: "> 100 µM (inactive)"
- compound: "Clc1ccc(C2ON=C(c3ccccc3)N2C23CC4CC(CC(C4)C2)C3)c(Cl)c1 (stereo unspecified)"
  result: "> 10 µM (inactive)"
- compound: "CC(C)/C(Cl)=N\\OC(=O)Nc1cccc(F)c1"
  result: "16.2 µM (inactive)"
- compound: "COc1ccc(C2OC(c3ccncc3)=NN2C)cc1OC (stereo unspecified)"
  result: "> 100 µM (inactive)"
- compound: "CN1c2ccccc2C(=O)Nc2cnc(Cl)nc21"
  result: "> 100 µM (inactive)"
- compound: "CCN(CC)CCOc1ccccc1/C=C/c1noc2ccccc12"
  result: "7.73 µM (inactive)"
- compound: "COc1cc(OC)c(C2CC=Cc3c(OC)cc(OC)c(OC)c32)cc1OC (stereo unspecified)"
  result: "> 100 µM (inactive)"
- compound: "C[N+](C)(C)CC(=O)N/N=C(/C=C/c1ccccc1)CC1OC(=O)c2ccccc21 (stereo unspecified)"
  result: "> 100 µM (inactive)"
- compound: "O=c1c2cc(Br)ccc2nc(-c2ccccc2Cl)n1NCC1(O)OCC(O)C(O)C1O (stereo unspecified)"
  result: "> 100 µM (inactive)"
- compound: "CCCCC1(C)C=C/C(=C2/C(=O)O/C(=C\\C(=O)O)C2=O)O1 (stereo unspecified)"
  result: "> 100 µM (inactive)"
- compound: "O=C1CCC2C(O)c3cc4c(cc3C(c3ccc5c(c3)OCO5)N12)OCO4 (stereo unspecified)"
  result: "> 100 µM (inactive)"

* * *

Tested on: SK-MEL-2
test.name: NCI tumour cell line growth inhibition, 48 h
The source made the active and inactive calls. Rule as the data show it: active = GI50 up to about 1.1 µM and inactive = higher.

- molecule: "Cc1ccc(Cc2n[nH]c(=O)n2-c2ccccc2)cc1"
  GI50: "73.1 µM (inactive)"
- molecule: "CC1OC2OC3C(OCC(O)C3O)OC(=O)[C@]34CCC(C)(C)CC3C3=CCC5[C@@]6(C)C[C@H](O)[C@H](OC7OC(CO)C(O)C(O)C7OC7OC(COC(=O)CC(C)(O)CC(=O)OC1C(OC1OC(CO)C(O)C(O)C1O)C2O)C(O)C(O)C7O)[C@@](C)(CO)C6CC[C@@]5(C)[C@]3(C)CC4 (stereo not given in full)"
  GI50: "1.58 µM (inactive)"
- molecule: "C=C1C2=C(CCCC2)C(=O)OC12CCCCC2"
  GI50: "70.3 µM (inactive)"
- molecule: "CCN(CC)Cc1cc(Nc2c3ccccc3nc3c2[nH]c2ccccc23)ccc1O"
  GI50: "1.34 µM (inactive)"
- molecule: "COC(=O)CCC(=O)CC(=O)C(=O)Nc1c(Cl)cc([N+](=O)[O-])cc1Cl"
  GI50: "> 100 µM (inactive)"
- molecule: "CCCC(S(=O)(=O)c1ccccc1)S(=O)(=O)c1ccccc1"
  GI50: "> 100 µM (inactive)"
- molecule: "NS(=O)(=O)c1nnc(NC(=O)c2ccccc2)s1"
  GI50: "> 100 µM (inactive)"
- molecule: "CC(=O)O[C@@H]1CC[C@@]2(C)C(CC[C@H]3[C@@H]4CC[C@H]([C@H](C)CCc5nc6cc(C)ccc6[nH]5)[C@@]4(C)CC[C@@H]32)C1 (stereo not given in full)"
  GI50: "31 µM (inactive)"
- molecule: "C#CC1(O)CCC2[C@@H]3CCc4cc(Oc5nc(F)nc(-c6c(C)c(C(=O)OCC)n7ccccc67)n5)ccc4C3CC[C@@]21C (stereo not given in full)"
  GI50: "> 100 µM (inactive)"
- molecule: "Clc1cc(Cl)nc(Nc2ccc3c(c2)CCC3)n1"
  GI50: "45 µM (inactive)"
- molecule: "O=C(O)c1ccc([I+]c2ccccc2)cc1"
  GI50: "> 100 µM (inactive)"
- molecule: "O=C(NC12CC3CC(CC(F)(C3)C1)C2)c1ccccc1"
  GI50: "> 100 µM (inactive)"
- molecule: "CN(C)/C=N/S(=O)(=O)c1nn2c(C=O)c(-c3ccccc3)nc2s1"
  GI50: "43 µM (inactive)"
- molecule: "N#Cc1c(Cl)cccc1Oc1ccc(S(=O)(=O)/N=C(\\NN)Nc2ccc(Cl)cc2)cc1"
  GI50: "21.6 µM (inactive)"
- molecule: "COc1ccc(/C=N/N=C(\\N)NO)cc1O"
  GI50: "76.4 µM (inactive)"
- molecule: "CCOC(=O)c1nc2cc(F)c(N3CCOCC3)cc2[nH]c1=O"
  GI50: "> 100 µM (inactive)"
- molecule: "CSCC[C@@H](NC(=O)[C@H](CC(C)C)NC(=O)C(Cc1cnc[nH]1)NC(=O)CNC(=O)[C@@H](NC(=O)[C@H](C)NC(=O)[C@H](Cc1cn(C=O)c2ccccc12)NC(=O)[C@H](CCC(N)=O)NC(=O)[C@@H](N)CC(N)=O)C(C)C)C(N)=O (stereo not given in full)"
  GI50: "> 100 µM (inactive)"
- molecule: "O=c1c(Cc2ccc(Cl)cc2)nnc2sc(-c3ccc(-c4ccc(F)c(Cl)c4)o3)nn12"
  GI50: "51.4 µM (inactive)"
- molecule: "CN(C)c1ccc(C2SCC(=O)N2c2ccc(Oc3ccc(Cl)cc3)c(Cl)c2)cc1 (stereo not given)"
  GI50: "20.4 µM (inactive)"
- molecule: "O=C1C=C/C(=N/c2cccc3c(/N=C4/C=CC(=O)O4)cccc23)O1"
  GI50: "> 100 µM (inactive)"
